Where do the numbers come from? From paper PMC3994546.

- target system: hSULT2A1 (Homo sapiens, UniProt Q06520)
- Sequence (Q06520 1-285): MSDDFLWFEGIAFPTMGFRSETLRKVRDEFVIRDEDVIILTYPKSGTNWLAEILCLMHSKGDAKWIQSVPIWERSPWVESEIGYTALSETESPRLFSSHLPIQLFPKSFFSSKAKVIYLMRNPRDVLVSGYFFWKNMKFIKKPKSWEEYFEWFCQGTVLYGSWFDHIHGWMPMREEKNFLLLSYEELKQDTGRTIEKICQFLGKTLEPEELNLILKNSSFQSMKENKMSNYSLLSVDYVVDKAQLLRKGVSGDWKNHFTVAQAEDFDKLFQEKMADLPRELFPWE
- test protocol: Ligand binding to free hSULT2A1 by ANS fluorescence displacement
- recorded conditions: read-out: Kd2, binding to hSULT2A1 in the absence of substrates or products; free enzyme; two-site, nonspecific binding curve
readout kind: Kd (µM)
Numbers only, in µM.

input: Please provide the recorded Kd for Oc1ccc(-c2ccc(Cl)cc2)cc1O [3’,4’-diOHPCB 3, 3’, 4’-dihydroxy-4-monochlorobiphenyl] , tested on hSULT2A1 (Homo sapiens, UniProt Q06520).
output: 41.9

###

Answer each item with its documented Kd.
- target system: hSULT2A1 (Homo sapiens)
- Sequence (Q06520 1-285): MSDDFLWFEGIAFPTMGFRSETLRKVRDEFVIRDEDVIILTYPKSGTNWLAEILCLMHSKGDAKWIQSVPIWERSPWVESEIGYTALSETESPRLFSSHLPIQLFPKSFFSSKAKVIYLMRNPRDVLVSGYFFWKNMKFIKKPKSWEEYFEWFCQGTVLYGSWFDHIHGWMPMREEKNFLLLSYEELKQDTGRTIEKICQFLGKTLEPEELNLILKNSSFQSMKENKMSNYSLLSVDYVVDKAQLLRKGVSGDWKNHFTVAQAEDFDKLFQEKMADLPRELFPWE
- test protocol: Ligand binding to free hSULT2A1 by ANS fluorescence displacement
Numbers only, in µM.

{"columns": ["compound", "target system", "unit symbol", "Kd"],
 "data": [
  ["Oc1c(Cl)cc(-c2ccc(Cl)cc2Cl)cc1Cl", "hSULT2A1 (Homo sapiens)", "µM", 2.26],
  ["Oc1c(Cl)cc(-c2ccccc2)cc1Cl [4-OHPCB 14, 4-hydroxy-3,5-dichlorobiphenyl]", "hSULT2A1 (Homo sapiens)", "µM", 2.55],
  ["Oc1ccc(-c2ccc(Cl)cc2)cc1O [3’,4’-diOHPCB 3, 3’, 4’-dihydroxy-4-monochlorobiphenyl]", "hSULT2A1 (Homo sapiens)", "µM", 1.17],
  ["Oc1ccc(-c2ccc(Cl)cc2)cc1 [4’-OHPCB 3, 4’-hydroxy-4-monochlorobiphenyl]", "hSULT2A1 (Homo sapiens)", "µM", 3.48],
  ["Oc1c(Cl)cc(-c2ccccc2Cl)cc1Cl [4-OHPCB 34, 4-hydroxy-2’, 3,5-trichlorobiphenyl]", "hSULT2A1 (Homo sapiens)", "µM", 2.07]
]}

Here is another compound to look at.
input: Query: Kd; subject: Oc1c(Cl)cc(-c2cccc(Cl)c2)cc1Cl [4-OHPCB 36, 4-hydroxy-3, 3’, 5-trichlorobiphenyl]
output: 2.46

###

- target system: UniProtKB Q06520
- Sequence (Q06520 1-285): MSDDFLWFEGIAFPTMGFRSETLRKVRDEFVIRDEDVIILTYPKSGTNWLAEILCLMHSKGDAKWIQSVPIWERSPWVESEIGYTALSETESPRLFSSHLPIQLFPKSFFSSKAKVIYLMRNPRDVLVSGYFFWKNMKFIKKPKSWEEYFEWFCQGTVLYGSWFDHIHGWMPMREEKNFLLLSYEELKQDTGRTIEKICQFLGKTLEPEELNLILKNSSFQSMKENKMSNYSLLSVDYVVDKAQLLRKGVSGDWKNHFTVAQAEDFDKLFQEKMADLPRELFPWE
- test protocol: Kinetics of inhibition of hSULT2A1-catalyzed sulfation of [3H]DHEA by OHPCBs
- Type: biochemical
- recorded conditions: read-out: Ki, inhibition of the sulfation of DHEA catalyzed by hSULT2A1; nonlinear regression fit to noncompetitive inhibition equation (4-OHPCB 36: competitive inhibition equation); 200 µM PAPS, pH 7.0, 37°C
readout kind: Ki (µM)
One number for each entry, in µM.

input: Query: Ki; subject: Oc1ccc(Cl)cc1-c1ccc(Cl)c(Cl)c1 [6’-OHPCB 35, 6’-hydroxy-3, 3’-4 trichlorobiphenyl]
output: 9

###

- target system: hSULT2A1 (Homo sapiens, UniProt Q06520)
- test protocol: Kinetics of inhibition of hSULT2A1-catalyzed sulfation of [3H]DHEA by OHPCBs
- Assay type: biochemical
readout kind: pKi
Answers are plain numbers, as −log10 of the molar value.

Worked cases, pKi given:
{"columns": ["compound", "pKi"],
 "data": [
  ["Oc1ccc(-c2ccc(Cl)cc2)cc1 [4’-OHPCB 3, 4’-hydroxy-4-monochlorobiphenyl]", 4.77],
  ["Oc1c(Cl)cc(-c2ccccc2)cc1Cl [4-OHPCB 14, 4-hydroxy-3,5-dichlorobiphenyl]", 4.87],
  ["Oc1ccc(-c2ccc(Cl)cc2)c(Cl)c1 [4-OHPCB 8, 4-hydroxy-2, 4’-dichlorobiphenyl]", 5.30]
]}

Would you mind giving pKi for every compound in the list below?
1. Oc1ccc(-c2ccc(Cl)cc2)cc1O [3’,4’-diOHPCB 3, 3’, 4’-dihydroxy-4-monochlorobiphenyl]
2. Oc1ccc(-c2cc(Cl)ccc2Cl)cc1 [4’-OHPCB 9, 4’-hydroxy-2,5-dichlorobiphenyl]
3. Oc1ccc(-c2ccc(Cl)c(Cl)c2)cc1 [4’-OHPCB 12, 4’-hydroxy-3,4-dichlorobiphenyl]
4. Oc1ccc(-c2ccc(Cl)cc2Cl)cc1Cl [4’-OHPCB 25, 4’-hydroxy-2, 3’, 4-trichlorobiphenyl]

output:
1: 4.49; 2: 6.15; 3: 5.40; 4: 5.52

Would you mind giving pKi for every compound in the list below?
1. Oc1ccc(-c2ccccc2Cl)cc1Cl [4’-OHPCB 6, 4’-hydroxy-2, 3’-dichlorobiphenyl]
2. Oc1ccc(-c2cccc(Cl)c2Cl)cc1O [3’,4’-diOHPCB 5, 3’, 4’- dihydroxy-2,3-dichlorobiphenyl]
3. Oc1c(Cl)cc(-c2cccc(Cl)c2)cc1Cl [4-OHPCB 36, 4-hydroxy-3, 3’, 5-trichlorobiphenyl]
4. Oc1ccc(-c2cccc(Cl)c2)cc1Cl [4-OHPCB 11, 4-hydroxy-3, 3’-dichlorobiphenyl]
5. Oc1c(Cl)cc(-c2ccccc2Cl)cc1Cl [4-OHPCB 34, 4-hydroxy-2’, 3,5-trichlorobiphenyl]

output:
5.27
4.85
5.47
4.92
6.10

Would you mind giving pKi for every compound in the list below?
1. Oc1ccc(-c2ccc(Cl)c(Cl)c2)c(Cl)c1 [4’-OHPCB 33, 4’-hydroxy-2’, 3,4-trichlorobiphenyl]
2. Oc1c(Cl)cc(-c2ccc(Cl)cc2Cl)cc1Cl [4’-OHPCB 68]

output:
1: 5.52; 2: 6.22

###

Answer each item with its documented Kd.
- target system: hSULT2A1 E-PAP complex (Homo sapiens, UniProt Q06520)
- test protocol: Ligand binding to the hSULT2A1-PAP complex by ANS fluorescence displacement
One number for each entry, in nM.

{"columns": ["molecule", "recorded number"],
 "data": [
  ["Oc1c(Cl)cc(-c2ccccc2Cl)cc1Cl [4-OHPCB 34, 4-hydroxy-2’, 3,5-trichlorobiphenyl]", 3200]
]}

Here is another molecule to look at.
input: Query: Kd; subject: Oc1c(Cl)cc(-c2ccccc2)cc1Cl [4-OHPCB 14, 4-hydroxy-3,5-dichlorobiphenyl]
output: 2210

###

- target system: UniProtKB Q06520
- test protocol: Ligand binding to free hSULT2A1 by ANS fluorescence displacement
- recorded conditions: free enzyme
readout kind: binding pattern to hSULT2A1 (ANS displacement)

{"columns": ["compound", "result"],
 "data": [
  ["Oc1ccc(-c2ccc(Cl)c(Cl)c2)c(Cl)c1 [4’-OHPCB 33, 4’-hydroxy-2’, 3,4-trichlorobiphenyl]", "multiphasic binding"],
  ["Oc1ccc(-c2cc(Cl)ccc2Cl)cc1 [4’-OHPCB 9, 4’-hydroxy-2,5-dichlorobiphenyl]", "multiphasic binding"]
]}
